target: serotonin transporter (Rattus norvegicus, UniProt P31652); construct: displace ^3H-paroxetine from male rat cortical membranes; from tissue; host or cells: male rat cortical membranes; assay: 5-HT transporter affinity: displacement of 3H-paroxetine from male rat cortical membranes; format: binding; conditions: displacement of 3H-paroxetine; male rat cortical membranes; read-out: 5-HT Transporter Affinity Ki
Sequence (P31652 whole entry): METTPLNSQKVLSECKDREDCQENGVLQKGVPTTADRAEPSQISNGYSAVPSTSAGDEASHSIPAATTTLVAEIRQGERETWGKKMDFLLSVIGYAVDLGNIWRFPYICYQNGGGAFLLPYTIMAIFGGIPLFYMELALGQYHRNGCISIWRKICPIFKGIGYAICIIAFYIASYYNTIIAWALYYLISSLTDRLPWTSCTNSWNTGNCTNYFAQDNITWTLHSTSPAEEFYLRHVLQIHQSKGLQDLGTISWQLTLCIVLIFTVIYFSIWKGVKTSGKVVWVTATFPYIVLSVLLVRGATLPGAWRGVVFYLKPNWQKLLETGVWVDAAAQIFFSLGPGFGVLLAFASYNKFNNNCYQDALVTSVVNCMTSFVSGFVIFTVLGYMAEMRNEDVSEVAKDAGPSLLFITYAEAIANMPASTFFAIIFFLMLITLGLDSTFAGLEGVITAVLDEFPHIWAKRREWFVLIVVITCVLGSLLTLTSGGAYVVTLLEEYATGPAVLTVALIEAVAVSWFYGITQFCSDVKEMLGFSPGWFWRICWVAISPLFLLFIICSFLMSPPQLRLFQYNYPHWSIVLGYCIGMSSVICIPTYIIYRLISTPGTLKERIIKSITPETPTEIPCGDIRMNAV
reported-endpoint: Ki (nM)
Output spec: scalar in nM, unitless text.

*Q* Identify Ki associated with the molecule NC(=O)c1ccc(F)c2c1CC(N(CCCc1c[nH]c3c(F)cc(F)cc13)C1CCC1)CO2 (single isomer, unassigned; (-)) [Compound 9a]
*A* 3.34

*Q* Identify Ki associated with the molecule CCCN(CCCc1c[nH]c2ccc(F)cc12)C1COc2cccc(C(N)=O)c2C1 (centres unmarked)
*A* 18.6

*Q* Identify Ki associated with the molecule CCCN(CCc1c[nH]c2ccc(F)cc12)C1COc2cccc(OC)c2C1 (centres unmarked)
*A* 27

*Q* Identify Ki associated with the molecule CCCN(CCCc1csc2ccc(F)cc12)C1COc2cccc(OC)c2C1 (centres unmarked)
*A* 405

*Q* Identify Ki associated with the molecule CCCN(CCCCn1ccc2cc(F)ccc21)C1COc2c(F)ccc(C(N)=O)c2C1 (centres unmarked)
*A* 114

*Q* Identify Ki associated with the molecule COc1cccc2c1CC(N(CCCc1c[nH]c3ccc(C#N)cc13)C1CCC1)CO2 (centres unmarked)
*A* 7.6

*Q* Identify Ki associated with the molecule CCCN(CCCCn1ccc2ccc(F)cc21)C1COc2c(F)ccc(C(N)=O)c2C1 (centres unmarked)
*A* 70

*Q* Identify Ki associated with the molecule CCN(CCCc1coc2ccccc12)C1COc2cccc(OC)c2C1 (centres unmarked)
*A* 311
